Experiment: in vitro
Details: African green monkey
parameterMeasured: CC50

>  <compound>
Cc1cccc(/C=N/Nc2cc(N3CCOCC3)nc(OCCc3ccccn3)n2)c1 [Apilimod, apilimod]

>  <obsValue>
> 2000 nM

$$$$

====

Tested on: EBOV/Mak
Assay: microbe, parasite or virus in culture
Assay type: cell-based, Ebola virus
Conditions: Zaire ebolavirus, Vero C1008
Where a name gives a salt, the structure may show the parent alone.
parameterMeasured: IC50

>  <compound>
CN(C)CCOc1ccc(/C(=C(/CCCl)c2ccccc2)c2ccccc2)cc1 [Toremifene citrate]

>  <measurementTarget>
EBOV/Mak

>  <obsValue>
1670 nM

$$$$
>  <compound>
Cc1cccc(/C=N/Nc2cc(N3CCOCC3)nc(OCCc3ccccn3)n2)c1 [Apilimod, apilimod]

>  <measurementTarget>
EBOV/Mak

>  <obsValue>
15 to 25 nM

$$$$
